# system-name: MMP-12 (Homo sapiens, UniProt P39900)
# Construct: In regard to MMP-12, catalytic domain (^100Phe˜^263Gly) was amplified with RT-PCR; His-tag; enterokinase digestion-site
# Sequence (P39900 100-263): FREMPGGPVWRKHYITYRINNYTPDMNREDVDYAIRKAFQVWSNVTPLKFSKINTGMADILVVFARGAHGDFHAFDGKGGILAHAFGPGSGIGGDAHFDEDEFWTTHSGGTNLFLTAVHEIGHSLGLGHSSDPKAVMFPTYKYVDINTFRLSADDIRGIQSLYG
# protocol-text: Assay for inhibitory activities on MMPs (fluorogenic peptide substrate), MMP-12
quantity-measured: IC50 (µM)

Some molecules with known IC50 results, for comparison:
- O=C(Nc1ccc(-c2ccc(S(=O)(=O)N[C@@H](Cc3ccccc3)C(=O)O)cc2)cc1)c1ccc2ccccc2c1: 7.97
- COc1ccc2cc(C#Cc3ccc(-c4ccc(S(=O)(=O)N[C@@H](C(=O)O)c5ccc(O)cc5)cc4)cc3)ccc2c1: 0.536
- COc1cccc(C(=O)Nc2ccc(-c3ccc(S(=O)(=O)N[C@H](Cc4ccccc4)C(=O)O)cc3)cc2)c1: 1.23

(a) C[C@@H](NS(=O)(=O)c1ccc(-c2ccc(NC(=O)c3ccc(OC(F)(F)F)cc3)cc2)cc1)C(=O)O
(b) CC(C)(C)[C@H](NS(=O)(=O)c1ccc(-c2ccc(NC(=O)c3cc4ccccc4s3)cc2)cc1)C(=O)O
Query: Kindly compare a with b and tell me which has the lower IC50 figure. To answer, give the label that identifies your chosen option.
Reply: b
(b: 0.0988 µM, a: 0.522 µM)

Origin of measurements: patent US20080119513A1
